test system: Inhibin beta A chain (activin A); assay: INHBA (activin A) binders on microarrays, primary screen, biochemical, small-molecule microarray, 635 nm fluorescence scan (AID 1107); conditions: small-molecule microarray binding, higher = more signal;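 also: mouse activin A protein probed at 4.33 µg/mL on printed slides; score merges bound-protein fluorescence near 667 nm with spot signal-to-noise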
Entries and their measured composite z-score follow.

- COCCCNC(=O)[C@]1(Cc2ccccc2CN=[N+]=[N-])N=C(c2ccc(OCCCO)cc2)O[C@@H]1c1ccccc1N=[N+]=[N-]: 1.4
- COc1ccc([Si](C)(C)[C@@H]2[C@@H](CC(=O)N3Cc4ccccc4C[C@H]3CO)O[C@]3(C(=O)N(Cc4ccc(I)cc4)c4ccccc43)[C@H]2C)cc1: 1.52
- C=CC[C@@]1(C(=O)NCCCOC)N=C(c2ccc(OCCCO)cc2)O[C@@H]1c1ccccc1CN=[N+]=[N-]: 1.14

Pending compound:
Request: # get_value(readout='composite z-score', item= `CCCC[C@@H](O)C1=C(C)Cn2c(=O)n(-c3ccccc3)c(=O)n2[C@H]1CO` )
Response: 0.146
